# maps each entry to its pest or weed control at 1000 g/ha
Tested on: Setaria faberi (SETFA)
procedure.text: Post-emergence biological efficacy, glasshouse pot test
Type: in vivo
condition.summary: 312 h, 1000 g/ha, after 13 days, 100=total damage, 0=no damage, read-out: Percentage damage caused to weed species SETFA

mol.smiles	pest or weed control at 1000 g/ha / %
COC(=O)c1nc(-c2ccc(C#N)nc2)nc(N)c1Cl	0
O=C(O)c1nc(-c2ccccn2)nc(Cl)c1Cl	0
C=Cc1c(N)nc(-c2ccc(Cl)nc2)nc1C(=O)OC	0
COC(=O)c1nc(-c2cccnc2OC)nc(N)c1Cl	0
COC(=O)c1nc(-c2csc3ccc(C)cc23)nc(N)c1Cl	0
COC(=O)c1nc(-c2cc(Cl)nc(Cl)c2)nc(N)c1Cl	10
COC(=O)c1nc(-c2cnn(C)c2)nc(N)c1Cl	0
COC(=O)c1nc(-c2cccnc2)nc(N)c1Cl	0
COC(=O)c1nc(-c2ccc(C#N)s2)nc(N)c1Cl	0
COC(=O)c1nc(-c2ccc(C)nc2F)nc(N)c1Cl	80

* * *

Test system: Setaria faberi (SETFA)
procedure.text: Post-emergence biological efficacy, glasshouse pot test
Type: in vivo
condition.summary: 312 h, 1000 g/ha, after 13 days, 100=total damage, 0=no damage, read-out: Percentage damage caused to weed species SETFA

compound	measure.unit	pest or weed control at 1000 g/ha
COC(=O)c1nc(-c2cncc3ccccc23)nc(N)c1Cl [Compound 2-196]	%	0
COC(=O)c1nc(-c2cc(Cl)sc2Cl)nc(N)c1Cl [Compound 2-19]	%	30
COC(=O)c1nc(-c2cccs2)nc(N)c1Cl [Compound 2-1]	%	0
COC(=O)c1nc(-c2ccc(OC)nc2OC)nc(N)c1Cl [Compound 2-159]	%	30
CCOC(=O)c1nc(-c2ccc(Cl)s2)nc(N)c1Cl [Compound 3-2]	%	0
COC(=O)c1nc(-c2ccc(OC)nc2)nc(N)c1Cl [Compound 2-155]	%	80
COC(=O)c1nc(-c2ccc(Cl)nc2)nc(N)c1Cl [Compound 2-156]	%	40
Nc1nc(-c2ccc(Cl)s2)nc(C(=O)O)c1Cl [Compound 1-2]	%	50
COC(=O)c1nc(-c2ccc(Cl)s2)nc(N)c1Cl [Compound 2-2]	%	0
CCOC(=O)c1nc(-c2ccc(C(F)(F)F)cn2)nc(N)c1Cl [Compound 3-150]	%	0
CCOC(=O)c1nc(-c2ccccn2)nc(N)c1Cl [Compound 3-149]	%	0
COC(=O)c1nc(-c2ccc(OC)s2)nc(N)c1Cl [Compound 2-7]	%	70
COC(=O)c1nc(-c2cc3ccccc3s2)nc(N)c1Cl [Compound 2-54]	%	50
COC(=O)c1nc(-c2csc3ccccc23)nc(N)c1Cl [Compound 2-56]	%	10
COC(=O)c1nc(-c2ccc(F)nc2)nc(N)c1Cl [Compound 2-157]	%	20
COC(=O)c1nc(-c2cnc(OC)nc2)nc(N)c1Cl [Compound 2-182]	%	10
Nc1nc(-c2ccccn2)nc(C(=O)O)c1Cl [Compound 1-149]	%	0
COC(=O)c1nc(-c2ccoc2)nc(N)c1Cl [Compound 2-34]	%	0

* * *

Test system: Solanum nigrum (SOLNI)
procedure.text: Post-emergence biological efficacy, glasshouse pot test
Format: in vivo
condition.summary: 312 h, 1000 g/ha, after 13 days, 100=total damage, 0=no damage, read-out: Percentage damage caused to weed species SOLNI
Experimental: Seeds of Alopecurus myosuroides (ALOMY), Setaria faberi (SETFA), Echinochloa crus-galli (ECHCG), Solanum nigrum (SOLNI), Amaranthus retroflexus (AMARE) and Ipomea hederaceae (IPOHE) were sown in standard soil in pots. […] The test plants were then grown on under controlled conditions in a glasshouse (at 24/16° C., day/night; 14 hours light; 65% humidity) and watered twice daily. After 13 days the test was evaluated (100=total damage to plant; 0=no damage to plant).

mol.smiles	pest or weed control at 1000 g/ha [%]
COC(=O)c1nc(-c2ccc(OC)nc2)nc(N)c1Cl	70
COC(=O)c1nc(-c2cnc(OC)nc2)nc(N)c1Cl	70
COC(=O)c1nc(-c2ccc(OC)nc2OC)nc(N)c1Cl	50
COC(=O)c1nc(-c2ccc(OC)s2)nc(N)c1Cl	80
COC(=O)c1nc(-c2csc3ccccc23)nc(N)c1Cl	40
COC(=O)c1nc(-c2cccnc2OC)nc(N)c1Cl	30
Nc1nc(-c2ccccn2)nc(C(=O)O)c1Cl	0
COC(=O)c1nc(-c2cccs2)nc(N)c1Cl	0
COC(=O)c1nc(-c2ccc(C#N)s2)nc(N)c1Cl	0
COC(=O)c1nc(-c2cc(Cl)nc(Cl)c2)nc(N)c1Cl	30
COC(=O)c1nc(-c2csc3ccc(C)cc23)nc(N)c1Cl	0
COC(=O)c1nc(-c2cc3ccccc3s2)nc(N)c1Cl	40
COC(=O)c1nc(-c2ccc(C#N)nc2)nc(N)c1Cl	20
CCOC(=O)c1nc(-c2ccccn2)nc(N)c1Cl	0
C=Cc1c(N)nc(-c2ccc(Cl)nc2)nc1C(=O)OC	90
CCOC(=O)c1nc(-c2ccc(Cl)s2)nc(N)c1Cl	70
COC(=O)c1nc(-c2cc(Cl)sc2Cl)nc(N)c1Cl	70
CCOC(=O)c1nc(-c2ccc(C(F)(F)F)cn2)nc(N)c1Cl	0

* * *

Each entry below carries its recorded pest or weed control at 1000 g/ha.
Tested on: Solanum nigrum (SOLNI)
procedure.text: Post-emergence biological efficacy, glasshouse pot test
Format: in vivo
condition.summary: 312 h, 1000 g/ha, after 13 days, 100=total damage, 0=no damage, read-out: Percentage damage caused to weed species SOLNI
reported.metric: pest or weed control at 1000 g/ha (%)

mol.smiles	value.reported
COC(=O)c1nc(-c2ccc(Cl)nc2)nc(N)c1Cl	80
COC(=O)c1nc(-c2ccc(F)nc2)nc(N)c1Cl	60
COC(=O)c1nc(-c2cccnc2)nc(N)c1Cl	0
COC(=O)c1nc(-c2cnn(C)c2)nc(N)c1Cl	0
COC(=O)c1nc(-c2cncc3ccccc23)nc(N)c1Cl	0
Nc1nc(-c2ccc(Cl)s2)nc(C(=O)O)c1Cl	80
COC(=O)c1nc(-c2ccc(Cl)s2)nc(N)c1Cl	90
O=C(O)c1nc(-c2ccccn2)nc(Cl)c1Cl	40
COC(=O)c1nc(-c2ccoc2)nc(N)c1Cl	10
COC(=O)c1nc(-c2ccc(C)nc2F)nc(N)c1Cl	80

* * *

System: Ipomea hederaceae (IPOHE)
procedure.text: Pre-emergence biological efficacy, glasshouse pot test
Assay type: in vivo
condition.summary: Ipomoea hederacea, 312 h, 1000 g/ha, after 13 days, 100=total damage, 0=no damage, read-out: Percentage damage caused to weed species IPOHE
reported.metric: pest or weed control at 1000 g/ha

mol.smiles	value.reported
COC(=O)c1nc(-c2csc3ccccc23)nc(N)c1Cl	0%
CCOC(=O)c1nc(-c2ccc(Cl)s2)nc(N)c1Cl	0%
COC(=O)c1nc(-c2ccc(C)nc2F)nc(N)c1Cl	0%

* * *

reported.metric: melting point

mol.smiles	reported.metric	value.reported
Nc1nc(-c2ccccn2)nc(C(=O)O)c1Cl	melting point	183 °C (dec.)
C=Cc1c(N)nc(-c2ccc(Cl)nc2)nc1C(=O)OC	melting point	194 to 195 °C
CCOC(=O)c1nc(-c2ccccn2)nc(N)c1Cl	melting point	176 to 180 °C (dec.)
COC(=O)c1nc(-c2ccc(C#N)nc2)nc(N)c1Cl	melting point	210 to 213 °C
COC(=O)c1nc(-c2cnn(C)c2)nc(N)c1Cl	melting point	185 to 186 °C

* * *

Test system: Solanum nigrum (SOLNI)
procedure.text: Pre-emergence biological efficacy, glasshouse pot test
Format: in vivo
condition.summary: 312 h, 1000 g/ha, after 13 days, 100=total damage, 0=no damage, read-out: Percentage damage caused to weed species SOLNI

mol.smiles	pest or weed control at 1000 g/ha
COC(=O)c1nc(-c2cc3ccccc3s2)nc(N)c1Cl	20%
COC(=O)c1nc(-c2ccc(Cl)s2)nc(N)c1Cl	0%
CCOC(=O)c1nc(-c2ccc(Cl)s2)nc(N)c1Cl	0%
COC(=O)c1nc(-c2ccc(F)nc2)nc(N)c1Cl	0%
Nc1nc(-c2ccccn2)nc(C(=O)O)c1Cl	0%

* * *

Tested on: Ipomea hederaceae (IPOHE)
procedure.text: Pre-emergence biological efficacy, glasshouse pot test
Assay type: in vivo
condition.summary: Ipomoea hederacea, 312 h, 1000 g/ha, after 13 days, 100=total damage, 0=no damage, read-out: Percentage damage caused to weed species IPOHE
Let's look at some compounds and their measured pest or weed control at 1000 g/ha.

mol.smiles	measured.on	pest or weed control at 1000 g/ha [%]
COC(=O)c1nc(-c2ccc(OC)nc2OC)nc(N)c1Cl	Ipomea hederaceae (IPOHE)	0
COC(=O)c1nc(-c2ccc(Cl)s2)nc(N)c1Cl	Ipomea hederaceae (IPOHE)	20
COC(=O)c1nc(-c2ccc(OC)s2)nc(N)c1Cl	Ipomea hederaceae (IPOHE)	20
C=Cc1c(N)nc(-c2ccc(Cl)nc2)nc1C(=O)OC	Ipomea hederaceae (IPOHE)	40
COC(=O)c1nc(-c2cnn(C)c2)nc(N)c1Cl	Ipomea hederaceae (IPOHE)	0
COC(=O)c1nc(-c2ccc(C#N)nc2)nc(N)c1Cl	Ipomea hederaceae (IPOHE)	0
COC(=O)c1nc(-c2cccnc2OC)nc(N)c1Cl	Ipomea hederaceae (IPOHE)	0
COC(=O)c1nc(-c2ccc(Cl)nc2)nc(N)c1Cl	Ipomea hederaceae (IPOHE)	0
Nc1nc(-c2ccccn2)nc(C(=O)O)c1Cl	Ipomea hederaceae (IPOHE)	0
COC(=O)c1nc(-c2cncc3ccccc23)nc(N)c1Cl	Ipomea hederaceae (IPOHE)	0
